// data source = PubChem BioAssay (NCATS)

# PROTOCOL SUMMARY: Drug repurposing screens with cells derived from glioblastoma tumor samples (AID 1345199); further: on the % scale 0 is the no-effect control and ±100 the full control effect; nearly all actives have a fitted effect of over 40% in size
# EXPERIMENTAL SETUP: GBM patient neurospheres viability, ATP luminescence, 48 h; at 46.1 µM (top of the series); tumour line C
Inconclusive results are not listed. Active and inactive are the calls of the source. The call rests on the fitted dose curve; in most records, active means well fitted inhibition curve with a large enough effect; inconclusive means small, poorly fitted or top-dose-only effect; inactive means flat fitted curve, though single readings scatter.
For each record, write down the corresponding activity, negative = cell killing.

COMPOUND	RESULT
CC1(c2ccccc2)OC(C(=O)O)=CC1=O (stereo not drawn)	-15.9% (inactive)

Could I get activity, negative = cell killing for every one of these entries?
1. Cc1c(C(=O)NCCO)[n+](=O)c2ccccc2n1[O-]
2. COC(=O)N/N=C/c1c[n+]([O-])c2ccccc2[n+]1[O-]
3. NS(=O)(=O)c1ccc(NC(=O)CCC(=O)O)cc1
4. CCCNC(C)(C)COC(=O)c1ccccc1
5. NC(=O)NS(=O)(=O)c1ccc(N)cc1
6. CCCCCC(C)N (stereo not drawn)
7. O=C1c2cccc(O)c2C(=O)c2c(O)cccc21
8. C/C=C1\[C@H]2C=C(C)C[C@]1(N)c1ccc(=O)[nH]c1C2

["-6.62% (inactive)", "2.7% (inactive)", "-4.81% (inactive)", "1.22% (inactive)", "3.57% (inactive)", "-13.3% (inactive)", "-4.97% (inactive)", "3.14% (inactive)"]

###

# PROTOCOL SUMMARY: qHTS Assay for Identification of Small Molecule Inducers of Hypoxia Response (AID 2120); further: 0% is about no effect
# EXPERIMENTAL SETUP: hypoxia response reporter cells, beta-lactamase ratio readout; series mostly up to 104 µM
Results filed as inconclusive are left out. The source made the active and inactive calls. The call rests on the fitted dose curve; in most records, active means well fitted curve in the direction sought with a large enough effect in the signal ratio, with a control signal flat (not every such curve was filed as active); inconclusive means small, poorly fitted or top-dose-only effect, or a change in a side signal; inactive means no such curve, though single readings can be large or run the other way; the % refers to the signal ratio.
REPORTED METRIC: outcome

For orientation, consider the following solved cases.
MOLECULE	outcome
Cc1cc(C)nc(NS(=O)(=O)c2ccc(N)cc2)n1	inactive
CCCCCCCC(=O)OCC(COC(=O)CCCCCCC)OC(=O)CCCCCCC	inactive
FC(F)(F)C(Cl)Br (configuration not stated)	inactive
O=C1c2cccc(O)c2C(=O)c2c(O)cccc21	inactive
CCCCCC(N)=O	inactive

Could I get outcome for every one of these entries?
1. CC(=O)Nc1ccccc1
2. CC(=O)Nc1cccc(O)c1

["inactive", "inactive"]

###

# PROTOCOL SUMMARY: Primary qHTS for inhibitors of nuclear receptor binding SET domain protein 2 (NSD2) in an RCH-ACV wild type WT cells (2C) (AID 1645877); further: nearly all actives have a fitted effect of over 70% in size; on activity change, negative = cell killing: on the % scale 0 is the no-effect control and ±100 the full control effect
# EXPERIMENTAL SETUP: RCH-ACV (leukaemia line) NSD2 WT (2C) viability, CellTiter-Glo, 72 h; series mostly up to 44.9 µM
Records with an inconclusive call do not appear. Active and inactive are the calls of the source. Calls follow the shape of the dose curve; as a rule, active = well fitted inhibition curve with a large enough effect; inconclusive = small, poorly fitted or top-dose-only effect; inactive = no such curve, though single readings can be large or run the other way.
REPORTED METRIC: activity change, negative = cell killing

For orientation, consider the following solved cases.
MOLECULE	activity change, negative = cell killing
O=C(O)CCCCC1CCSS1 (centres undefined)	inactive
CN1C(C)(C)CCCC1(C)C	inactive
NC(N)=NS(=O)(=O)c1ccc(N)cc1	inactive
Nc1ccncc1N	inactive
COc1cc(O)cc(O)c1	inactive

Could I get activity change, negative = cell killing for every one of these entries?
1. COc1ccc(C(=O)NCc2ccc(OCCN(C)C)cc2)cc1OC
2. CC1CC(OC(=O)c2ccccc2O)CC(C)(C)C1 (centres undefined)

["inactive", "inactive"]

###

# PROTOCOL SUMMARY: Drug repurposing screens with cells derived from glioblastoma tumor samples (AID 1345199); further: on the % scale 0 is the no-effect control and ±100 the full control effect; nearly all actives have a fitted effect of over 40% in size
# EXPERIMENTAL SETUP: GBM patient neurospheres viability, ATP luminescence, 48 h; at 45.9 µM (top of the series); tumour line B
Results filed as inconclusive are left out.
For each record, write down the corresponding activity, negative = cell killing.
Give bare numbers, in %.

For orientation, consider the following solved cases.
MOLECULE	REPORTED METRIC	MEASURED NUMBER
CC(CSC(=O)c1ccccc1)C(=O)N1C[C@@H](Sc2ccccc2)C[C@H]1C(=O)O (stereo partly specified)	activity, negative = cell killing	-5.59
COc1cc(O)cc(O)c1	activity, negative = cell killing	-0.182
Cc1cc(=O)[nH]c(=S)[nH]1	activity, negative = cell killing	-11.2
O=C(/C=C/c1ccc(O)c(O)c1)O[C@@H]1C[C@@](OC(=O)/C=C/c2ccc(O)c(O)c2)(C(=O)O)C[C@@H](O)[C@@H]1O	activity, negative = cell killing	1.43
O=C(OOC(=O)c1ccccc1)c1ccccc1	activity, negative = cell killing	-7.59
O=C(NCCCN1CCOCC1)c1ccc(Cl)cc1	activity, negative = cell killing	-1.61
CC(CN(C)C)C(C)(O)Cc1ccc(Cl)cc1 (stereo unspecified)	activity, negative = cell killing	-15.1
C[C@@H](c1ncncc1F)C(O)(Cn1cncn1)c1ccc(F)cc1F (stereo partly specified)	activity, negative = cell killing	-6.32
C[C@]1(Cn2ccnn2)[C@H](C(=O)O)N2C(=O)C[C@H]2S1(=O)=O	activity, negative = cell killing	-6.98
CC(O)CCCCn1c(=O)c2c(ncn2C)n(C)c1=O (stereo unspecified)	activity, negative = cell killing	-11.9

Reported activity, negative = cell killing of O=C(O)Cc1ccc(CCNS(=O)(=O)c2ccc(Cl)cc2)cc1 : -9.63

###

# PROTOCOL SUMMARY: Drug repurposing screens with cells derived from glioblastoma tumor samples (AID 1345199); further: on the % scale 0 is the no-effect control and ±100 the full control effect; nearly all actives have a fitted effect of over 40% in size
# EXPERIMENTAL SETUP: GBM patient neurospheres viability, ATP luminescence, 48 h; at 46 µM (top of the series); tumour line A
Records with an inconclusive call do not appear.
// returns 0 (no) unless activity, negative = cell killing is strictly below -30%, in which case 1 (yes)

COMPOUND	GROUP LABEL
CC(C)=CCC/C(C)=C/CO	0 (no)

Lab note: activity, negative = cell killing threshold -30%. Does this compound come in strictly under it? CCCCCC(C)N (stereo unspecified)
1 (yes)

Lab note: activity, negative = cell killing threshold -30%. Does this compound come in strictly under it? N[C@@H](Cc1ccc(O)cc1)C(=O)O
0 (no)

Lab note: activity, negative = cell killing threshold -30%. Does this compound come in strictly under it? CCOC(=O)c1cccnc1
0 (no)

###

# TARGET OR TEST SYSTEM: Thyroid hormone receptor beta (Homo sapiens) (UniProt P10828)
# Sequence (P10828 whole entry, looked up): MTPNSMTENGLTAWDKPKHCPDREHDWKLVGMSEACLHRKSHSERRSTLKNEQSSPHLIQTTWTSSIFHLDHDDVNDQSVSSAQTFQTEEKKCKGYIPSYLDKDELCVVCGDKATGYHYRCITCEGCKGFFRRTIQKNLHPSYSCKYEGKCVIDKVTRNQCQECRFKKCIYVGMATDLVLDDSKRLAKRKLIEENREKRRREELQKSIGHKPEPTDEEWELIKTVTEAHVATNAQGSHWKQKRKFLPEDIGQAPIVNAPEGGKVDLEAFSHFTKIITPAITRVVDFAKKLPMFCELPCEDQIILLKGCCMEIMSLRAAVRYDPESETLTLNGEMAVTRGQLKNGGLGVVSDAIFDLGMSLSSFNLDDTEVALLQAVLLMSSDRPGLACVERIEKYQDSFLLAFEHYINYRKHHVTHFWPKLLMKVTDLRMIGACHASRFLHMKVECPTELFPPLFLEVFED
# PROTOCOL SUMMARY: qHTS assay for small molecule antagonists of thyroid hormone receptor beta signaling (AID 588547);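 further: cells stimulated with 0.4 nM T3 agonist during compound exposure; on the % scale 0 is the no-effect control and ±100 the full control effect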
# EXPERIMENTAL SETUP: TR-UAS-bla HEK293, beta-lactamase ratio, antagonist mode, 18 h
Records with an inconclusive call do not appear.
REPORTED METRIC: activity change % (negative = inhibition) (%)
Give bare numbers, in %.

For orientation, consider the following solved cases.
COMPOUND	MEASURED NUMBER
CC(C)=CCC/C(C)=C/CO	13.2
CCN(CC)C(=O)c1cccc(C)c1	-13.1
CC(=O)Nc1ccc(C(=O)O)cc1	2.92
CC(=O)Nc1ccccc1	8.98
O=C1c2cccc(O)c2C(=O)c2c(O)cccc21	-11.3
CC1CC(OC(=O)c2ccccc2O)CC(C)(C)C1 (stereo not drawn)	-8.08
CC(=O)Nc1cccc(O)c1	8.82

Now for a further compound.
Reported activity change % (negative = inhibition) of CC(=O)NS(=O)(=O)c1ccc(N)cc1 : -0.298

###

# Tested on: MKL-2
# PROTOCOL SUMMARY: qHTS assay to identify novel small-molecules to repurpose for Merkel cell carcinoma treatment (AID 1296009); further: on the % scale 0 is the no-effect control and ±100 the full control effect; nearly all actives have a fitted effect of over 60% in size
# EXPERIMENTAL SETUP: MCC and control cell lines, CellTiter-Glo viability, 72 h; series mostly up to 46 µM
Results filed as inconclusive are left out. Active and inactive are the calls of the source. Calls follow the shape of the dose curve; as a rule, active = well fitted inhibition curve with a large enough effect; inconclusive = small, poorly fitted or top-dose-only effect; inactive = flat fitted curve, though single readings scatter.
REPORTED METRIC: activity change, negative = cytotoxicity

For orientation, consider the following solved cases.
COMPOUND	TARGET OR TEST SYSTEM	REPORTED METRIC	RESULT
O=C(O)c1ccc[n+]([O-])c1	MKL-2	activity change, negative = cytotoxicity	inactive
CCN(CC)CCOC(=O)C(c1ccccc1)c1ccccc1	MKL-2	activity change, negative = cytotoxicity	inactive
O=C1c2ccccc2C(=O)C1c1ccc(Br)cc1	MKL-2	activity change, negative = cytotoxicity	inactive
CN1CCCN=C1COC(=O)C(O)(c1ccccc1)C1CCCCC1 (configuration not stated)	MKL-2	activity change, negative = cytotoxicity	inactive
CCCCCCCCCCCCCCCCN	MKL-2	activity change, negative = cytotoxicity	inactive
O=C(OOC(=O)c1ccccc1)c1ccccc1	MKL-2	activity change, negative = cytotoxicity	inactive
OC(CCN1CCCC1)(c1ccccc1)C1CCCCC1 (configuration not stated)	MKL-2	activity change, negative = cytotoxicity	inactive
O=C(O)c1ccccc1C(=O)Nc1ccc(S(=O)(=O)Nc2nccs2)cc1	MKL-2	activity change, negative = cytotoxicity	inactive

Could I get activity change, negative = cytotoxicity for every one of these entries?
1. Cc1ccc2c(c1)c1c3n2CCNC3CCC1 (configuration not stated)
2. CC(=O)Nc1ccc(C(=O)O)cc1
3. C[C@@H](c1ncncc1F)C(O)(Cn1cncn1)c1ccc(F)cc1F (some centres not stated)
4. O=C(O)CCC(=O)O

inactive
inactive
inactive
inactive

Could I get activity change, negative = cytotoxicity for every one of these entries?
1. C[N+](C)(C)CC(O)CC(=O)[O-] (configuration not stated)
2. C=CCOc1ccccc1OCC(O)CNC(C)C (configuration not stated)
3. CC(CSC(=O)c1ccccc1)C(=O)N1C[C@@H](Sc2ccccc2)C[C@H]1C(=O)O (some centres not stated)
4. NS(=O)(=O)c1ccc(NC(=O)CCC(=O)O)cc1
5. Cc1c(C(=O)NCCO)[n+](=O)c2ccccc2n1[O-]

1: inactive; 2: inactive; 3: inactive; 4: inactive; 5: inactive
